- Tested on: RARb homodimer (NR concentration 270 nM)
- assay: PBM binding z-score (relative to random genomic background probes); higher = stronger binding; sequences stand for … in GC…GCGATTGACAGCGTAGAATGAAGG
Reported PBM binding z-score by item:
metric_name: PBM binding z-score

INSERT INTO assay_data (input_sequence, test_system, observed) VALUES
  ('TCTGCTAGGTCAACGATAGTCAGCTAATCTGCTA', 'RARb homodimer (NR concentration 270 nM)', 2.84),
  ('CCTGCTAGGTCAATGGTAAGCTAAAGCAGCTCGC', 'RARb homodimer (NR concentration 270 nM)', 2.43),
  ('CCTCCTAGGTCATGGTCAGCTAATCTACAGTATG', 'RARb homodimer (NR concentration 270 nM)', 3.55),
  ('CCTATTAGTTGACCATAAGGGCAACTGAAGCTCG', 'RARb homodimer (NR concentration 270 nM)', 2.04),
  ('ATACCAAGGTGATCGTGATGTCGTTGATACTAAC', 'RARb homodimer (NR concentration 270 nM)', 0.279),
  ('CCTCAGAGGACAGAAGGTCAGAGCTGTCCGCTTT', 'RARb homodimer (NR concentration 270 nM)', 3.51),
  ('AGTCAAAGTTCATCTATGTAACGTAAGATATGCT', 'RARb homodimer (NR concentration 270 nM)', 3.77),
  ('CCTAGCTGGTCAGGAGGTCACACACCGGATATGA', 'RARb homodimer (NR concentration 270 nM)', 4.31),
  ('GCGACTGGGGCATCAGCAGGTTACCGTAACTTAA', 'RARb homodimer (NR concentration 270 nM)', 1.14),
  ('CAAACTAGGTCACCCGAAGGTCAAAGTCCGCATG', 'RARb homodimer (NR concentration 270 nM)', 5.43),
  ('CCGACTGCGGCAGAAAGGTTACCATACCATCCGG', 'RARb homodimer (NR concentration 270 nM)', 1.92),
  ('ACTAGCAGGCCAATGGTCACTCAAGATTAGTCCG', 'RARb homodimer (NR concentration 270 nM)', 0.496),
  ('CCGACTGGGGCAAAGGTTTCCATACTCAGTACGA', 'RARb homodimer (NR concentration 270 nM)', 0.438),
  ('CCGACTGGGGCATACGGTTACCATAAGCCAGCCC', 'RARb homodimer (NR concentration 270 nM)', 0.117),
  ('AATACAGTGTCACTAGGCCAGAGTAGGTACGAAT', 'RARb homodimer (NR concentration 270 nM)', 0.565),
  ('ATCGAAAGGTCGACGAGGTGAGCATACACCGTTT', 'RARb homodimer (NR concentration 270 nM)', 2.94),
  ('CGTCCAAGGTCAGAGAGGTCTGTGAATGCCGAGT', 'RARb homodimer (NR concentration 270 nM)', 3.99),
  ('TCTTGTAGATCAAGCAGGATAAGAAAGCCTGAGT', 'RARb homodimer (NR concentration 270 nM)', -0.48),
  ('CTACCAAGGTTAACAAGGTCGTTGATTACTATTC', 'RARb homodimer (NR concentration 270 nM)', 2.69),
  ('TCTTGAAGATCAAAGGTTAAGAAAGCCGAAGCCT', 'RARb homodimer (NR concentration 270 nM)', 1.32),
  ('ATTTCTAGGTAACCAAGTTCAGTGAATGCCGAAC', 'RARb homodimer (NR concentration 270 nM)', 1.55),
  ('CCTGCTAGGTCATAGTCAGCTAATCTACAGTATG', 'RARb homodimer (NR concentration 270 nM)', 2.32),
  ('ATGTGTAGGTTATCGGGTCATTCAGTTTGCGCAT', 'RARb homodimer (NR concentration 270 nM)', 3.35),
  ('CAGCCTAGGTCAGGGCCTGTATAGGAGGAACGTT', 'RARb homodimer (NR concentration 270 nM)', 2.38),
  ('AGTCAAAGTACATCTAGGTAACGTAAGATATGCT', 'RARb homodimer (NR concentration 270 nM)', -0.123),
  ('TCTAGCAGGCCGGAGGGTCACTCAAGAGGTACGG', 'RARb homodimer (NR concentration 270 nM)', 2.33);

---

- Tested on: PPARg homodimer (NR concentration 180 nM)
- assay: PBM binding z-score (relative to random genomic background probes); higher = stronger binding; sequences stand for … in GC…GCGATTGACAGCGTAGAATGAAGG
metric_name: PBM binding z-score

INSERT INTO assay_data (input_sequence, observed) VALUES
  ('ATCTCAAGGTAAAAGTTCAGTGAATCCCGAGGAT', 0.853),
  ('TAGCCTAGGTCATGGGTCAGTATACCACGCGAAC', 2.55),
  ('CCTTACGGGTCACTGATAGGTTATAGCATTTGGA', 2.47),
  ('TCTAGTTGGTCACCGAGGTCACACACGACGGGTA', 3.73),
  ('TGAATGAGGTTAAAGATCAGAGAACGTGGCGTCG', 0.79),
  ('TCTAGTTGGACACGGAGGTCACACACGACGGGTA', 2.38),
  ('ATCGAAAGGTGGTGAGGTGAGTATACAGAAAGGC', 0.911),
  ('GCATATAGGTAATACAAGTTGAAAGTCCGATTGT', 0.423),
  ('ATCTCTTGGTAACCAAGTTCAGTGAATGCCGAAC', 0.28),
  ('AGGACGAGGGCACGCTGAGTTGATAGCAGAGTAG', 0.511),
  ('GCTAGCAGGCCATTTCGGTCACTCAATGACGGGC', -0.364),
  ('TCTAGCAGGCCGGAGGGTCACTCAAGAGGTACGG', 0.278);

---

- Tested on: LXRb homodimer (NR concentration 270 nM)
- assay: PBM binding z-score (relative to random genomic background probes); higher = stronger binding; sequences stand for … in GC…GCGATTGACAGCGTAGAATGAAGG
metric_name: PBM binding z-score

INSERT INTO assay_data (input_sequence, test_system, metric_name, observed) VALUES
  ('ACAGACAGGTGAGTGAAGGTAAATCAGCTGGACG', 'LXRb homodimer (NR concentration 270 nM)', 'PBM binding z-score', -0.427),
  ('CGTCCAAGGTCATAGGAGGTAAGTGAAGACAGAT', 'LXRb homodimer (NR concentration 270 nM)', 'PBM binding z-score', 0.57),
  ('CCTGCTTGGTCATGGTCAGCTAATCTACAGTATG', 'LXRb homodimer (NR concentration 270 nM)', 'PBM binding z-score', -0.639),
  ('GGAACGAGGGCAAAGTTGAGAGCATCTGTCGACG', 'LXRb homodimer (NR concentration 270 nM)', 'PBM binding z-score', -0.383),
  ('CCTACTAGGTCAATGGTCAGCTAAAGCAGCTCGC', 'LXRb homodimer (NR concentration 270 nM)', 'PBM binding z-score', 0.47),
  ('TCGAGTAGGATAGTCGGGGCATTCAGCCAACATA', 'LXRb homodimer (NR concentration 270 nM)', 'PBM binding z-score', -0.624),
  ('CTCGAAAGGTCTTGCTCAGGTGAGTATACCAAAC', 'LXRb homodimer (NR concentration 270 nM)', 'PBM binding z-score', -0.158),
  ('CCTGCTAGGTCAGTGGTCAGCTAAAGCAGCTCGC', 'LXRb homodimer (NR concentration 270 nM)', 'PBM binding z-score', -0.638),
  ('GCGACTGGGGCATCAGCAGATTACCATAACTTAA', 'LXRb homodimer (NR concentration 270 nM)', 'PBM binding z-score', -0.549),
  ('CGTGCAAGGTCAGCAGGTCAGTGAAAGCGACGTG', 'LXRb homodimer (NR concentration 270 nM)', 'PBM binding z-score', -0.32),
  ('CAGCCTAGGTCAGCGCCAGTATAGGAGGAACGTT', 'LXRb homodimer (NR concentration 270 nM)', 'PBM binding z-score', -0.863),
  ('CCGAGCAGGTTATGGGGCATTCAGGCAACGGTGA', 'LXRb homodimer (NR concentration 270 nM)', 'PBM binding z-score', -0.148),
  ('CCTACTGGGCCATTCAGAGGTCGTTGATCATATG', 'LXRb homodimer (NR concentration 270 nM)', 'PBM binding z-score', -0.712),
  ('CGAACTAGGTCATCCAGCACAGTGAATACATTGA', 'LXRb homodimer (NR concentration 270 nM)', 'PBM binding z-score', 0.124),
  ('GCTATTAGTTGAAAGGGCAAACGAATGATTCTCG', 'LXRb homodimer (NR concentration 270 nM)', 'PBM binding z-score', -0.0679),
  ('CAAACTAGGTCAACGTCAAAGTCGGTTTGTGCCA', 'LXRb homodimer (NR concentration 270 nM)', 'PBM binding z-score', 0.247),
  ('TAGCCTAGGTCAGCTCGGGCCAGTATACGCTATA', 'LXRb homodimer (NR concentration 270 nM)', 'PBM binding z-score', -1.22),
  ('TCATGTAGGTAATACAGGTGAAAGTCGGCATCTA', 'LXRb homodimer (NR concentration 270 nM)', 'PBM binding z-score', -0.485),
  ('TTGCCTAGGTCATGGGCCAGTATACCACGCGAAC', 'LXRb homodimer (NR concentration 270 nM)', 'PBM binding z-score', -0.439),
  ('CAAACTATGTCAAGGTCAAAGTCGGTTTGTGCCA', 'LXRb homodimer (NR concentration 270 nM)', 'PBM binding z-score', 1.75),
  ('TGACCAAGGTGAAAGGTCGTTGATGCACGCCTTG', 'LXRb homodimer (NR concentration 270 nM)', 'PBM binding z-score', -0.814),
  ('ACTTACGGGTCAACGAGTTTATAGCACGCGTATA', 'LXRb homodimer (NR concentration 270 nM)', 'PBM binding z-score', 0.714),
  ('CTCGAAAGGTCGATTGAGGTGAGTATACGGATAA', 'LXRb homodimer (NR concentration 270 nM)', 'PBM binding z-score', 0.38),
  ('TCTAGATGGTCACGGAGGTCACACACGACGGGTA', 'LXRb homodimer (NR concentration 270 nM)', 'PBM binding z-score', 0.481),
  ('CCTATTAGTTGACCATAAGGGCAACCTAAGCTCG', 'LXRb homodimer (NR concentration 270 nM)', 'PBM binding z-score', 0.685),
  ('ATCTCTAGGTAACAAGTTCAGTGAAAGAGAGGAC', 'LXRb homodimer (NR concentration 270 nM)', 'PBM binding z-score', 1.21);
